Target: Sialate O-acetylesterase (Homo sapiens) (UniProt Q9HAT2)
Sequence (Q9HAT2 whole entry, looked up): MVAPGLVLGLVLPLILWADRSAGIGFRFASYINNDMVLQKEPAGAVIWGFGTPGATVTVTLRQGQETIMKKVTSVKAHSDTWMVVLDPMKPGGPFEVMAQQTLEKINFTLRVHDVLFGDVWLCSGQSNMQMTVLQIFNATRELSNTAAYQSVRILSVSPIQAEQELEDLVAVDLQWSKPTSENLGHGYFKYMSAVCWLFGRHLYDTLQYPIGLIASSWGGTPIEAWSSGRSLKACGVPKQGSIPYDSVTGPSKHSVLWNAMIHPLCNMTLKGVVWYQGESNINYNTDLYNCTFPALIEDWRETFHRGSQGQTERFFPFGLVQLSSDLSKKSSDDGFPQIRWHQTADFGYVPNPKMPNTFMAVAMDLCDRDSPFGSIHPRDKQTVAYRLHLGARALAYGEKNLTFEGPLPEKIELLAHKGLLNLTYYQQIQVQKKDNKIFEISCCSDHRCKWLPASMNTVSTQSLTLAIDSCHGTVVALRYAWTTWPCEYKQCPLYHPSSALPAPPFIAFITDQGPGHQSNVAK
Experiment: human SIAE inhibitors, retest, confirmation, biochemical, fluorescence polarization, FP-Rh probe, triplicate (AID 1117263);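 further: 0% = SIAE with DMSO and probe and 100% = probe without SIAE; inhibitors lower polarization as more probe stays unbound to SIAE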
Conditions: SIAE FP-Rh activity-based probe, at 9.66 µM, stronger effect = higher value
The whole screen tested about 2,300 compounds, of which about 300 (13%) were called active. Not all results are given here.
Parameter measured: inhibition (%)

INSERT INTO measurements (input_smiles, parameter_measured, measured) VALUES
  ('Oc1ccc(N=Cc2c(O)ccc3ccccc23)cc1', 'inhibition', -1.4),
  ('COc1ccc(N2CCN(c3ccc([N+](=O)[O-])nc3)CC2)cc1', 'inhibition', 8),
  ('CCOC(=O)c1c(C)nn(-c2ncccc2NC(=O)CCC(=O)O)c1C', 'inhibition', -3.52),
  ('COc1ccc(CCNc2ncnc3nc[nH]c23)cc1OC', 'inhibition', -2.94),
  ('CCOc1ccccc1Nc1ccc(C(=O)O)cc1[N+](=O)[O-]', 'inhibition', -0.47);

The reported numbers originate from PubChem BioAssay AID1117263.
